Below is a list of entries, each paired with its recorded self-cleavage value.
B1: LINE1-mini (parent)
chain: GGCAGAGCUCAACACAGCGUGGCAAAGUGGCUGUGGCUAGACUGCC

Variants of: B1
measurement.notes: self-cleavage, relative activity (ratio to wild type); higher = more cleavage; in vitro, sequencing; the parent is a self-cleaving ribozyme
Please reply with the value in numeric form only.

variant_designation="A11C A14G" recorded_metric=self-cleavage result=0.04
variant_designation="U9G A26U" recorded_metric=self-cleavage result=0.15

Consider the additional variant presented here.
Ask: Output self-cleavage of G17A A25U
Reply: 0.24
